- Species: Rattus norvegicus
- measurementDescription: Antioxidant activity in Wistar albino rat assessed as superoxide dismutase level
- Format: functional
propertyMeasured: Activity

# annotated cases, reported Activity shown
CCOC(=O)C1c2ccccc2CN1P1(=S)Oc2ccccc2CN1c1ccc(N2Cc3ccccc3OP2(=S)N2Cc3ccccc3C2C(=O)OCC)cc1 (stereo not given): 30.59 µg/mL
COC(=O)C(Cc1ccccc1)NP1(=S)Oc2ccccc2CN1c1ccc(N2Cc3ccccc3OP2(=S)NC(Cc2ccccc2)C(=O)OC)cc1 (stereo not given): 29.42 µg/mL
CCCC(NP1(=S)Oc2ccccc2CN1c1ccc(N2Cc3ccccc3OP2(=S)NC(CCC)C(=O)OCC)cc1)C(=O)OCC (stereo not given): 28.55 µg/mL

Now look at this one.
The recorded Activity for CCOC(=O)C(C)NP1(=S)Oc2ccccc2CN1c1ccc(N2Cc3ccccc3OP2(=S)NC(C)C(=O)OCC)cc1 (stereo not given) is 28.14 µg/mL

Data provenance is ChEMBL document CHEMBL1157850.
